method: in vitro
settings: human, % Cytotoxicity
measurement.label: cytotoxicity at 1 h, 500 μM (%)
Record the value in %, omitting the unit from your answer.

(Q) Recorded cytotoxicity at 1 h, 500 μM of "CCCCCCCCCCCCCCCC(=O)OC[C@H](COP(=O)([O-])OCC[N+](C)(C)C)OC(=O)CCCC(=O)O" , please.
(A) 2

---

% FD3 Permeation values for the molecules below.
Test system: human-derived tracheal/bronchial epithelial cells (EpiAirway Tissue Model)
method: FITC-Dextran permeation assay across epithelial cell monolayer
Type: cell-based
settings: lipid 1000 μM in Buffer I
Kindly answer with a numeric value in %, unit omitted.

Worked cases, answers included:
C=CCC(=O)O[C@H](COCCCCCCCCCCCCCCCC)COP(=O)([O-])OCC[N+](C)(C)C ... 44
CCCCCCCCCCCCCCCCCCOC[C@H](COP(=O)([O-])OCC[N+](C)(C)C)OC(C)=O ... 42
CCCCCCCCCCCCCCCC(=O)OC[C@H](COP(=O)([O-])OCC[N+](C)(C)C)OC(=O)CCCC=O ... 53

(Q) Would you kindly share the measured % FD3 Permeation for "CCCCCCCCCCCCCCCCOC[C@H](COP(=O)([O-])OCC[N+](C)(C)C)OC(C)=O" ?
(A) 41

(Q) I have this molecule here, CCCCCCCCCCCCCCCCOC[C@@H](COP(=O)([O-])OCC[N+](C)(C)C)OC(C)=O [C16 Enantiomeric PAF] , and I need its recorded % FD3 Permeation.
(A) 46

---

Test system: human-derived tracheal/bronchial epithelial cells (EpiAirway Tissue Model)
method: in vitro
settings: human, 1 h, 500 μM
Below, each entry is listed alongside its reported Cytotoxic Effect (LDH) 1 hr. Post-treatments.
API: value field is a number in %; no unit string.

These solved cases illustrate the format of a correct answer.
CCCCCCCCCCCCCCCC(=O)OC[C@H](COP(=O)([O-])OCC[N+](C)(C)C)OC(=O)CCCCCCCC(=O)O ... 9
CCCCCCCCCCCCCCCCCCOC[C@H](COP(=O)([O-])OCC[N+](C)(C)C)OC ... 26
CCCCCCCCCCCCCCCC(=O)OC[C@H](COP(=O)([O-])OCC[N+](C)(C)C)OC(=O)CCCC(=O)O ... 13

Could you now look at the following compound, please?
(Q) Please report the recorded Cytotoxic Effect (LDH) 1 hr. Post-treatments for "CCCCCCCCCCCCCCCCOC[C@H](COP(=O)([O-])OCC[N+](C)(C)C)OC(=O)CCCCCCCC(=O)O" .
(A) 16

---

Reported % FITC-Dextran Permeation FD3 by item:
Tested on: human-derived tracheal/bronchial epithelial cells (EpiAirway Tissue Model)
method: FITC-Dextran permeation assay across epithelial cell monolayer
Assay type: cell-based
settings: lipid 1000 μM (Table 5)
Report the figure in % without appending any unit label.

Solved entries:
C=CCC(=O)O[C@H](COCCCCCCCCCCCCCCCC)COP(=O)([O-])OCC[N+](C)(C)C [C16-04:1 PC] ... 25
CCCCCCCCCCCCCCCCOC[C@@H](COP(=O)([O-])OCC[N+](C)(C)C)OC(C)=O [C16 Enantiomeric PAF] ... 20

Next:
(Q) Any idea what % FITC-Dextran Permeation FD3 was measured for CCCCCCCCCCCCCCCC(=O)OC[C@H](COP(=O)([O-])OCC[N+](C)(C)C)OC(=O)CCCCCCCC=O [16:0-09:0(ALDO)PC] ?
(A) 0
